# Test target: CYP2C9 (Homo sapiens)
# Construct: human liver microsomes (0.4 mg/ml); from tissue; host or cells: human liver microsomes
# Sequence (P11712 whole entry): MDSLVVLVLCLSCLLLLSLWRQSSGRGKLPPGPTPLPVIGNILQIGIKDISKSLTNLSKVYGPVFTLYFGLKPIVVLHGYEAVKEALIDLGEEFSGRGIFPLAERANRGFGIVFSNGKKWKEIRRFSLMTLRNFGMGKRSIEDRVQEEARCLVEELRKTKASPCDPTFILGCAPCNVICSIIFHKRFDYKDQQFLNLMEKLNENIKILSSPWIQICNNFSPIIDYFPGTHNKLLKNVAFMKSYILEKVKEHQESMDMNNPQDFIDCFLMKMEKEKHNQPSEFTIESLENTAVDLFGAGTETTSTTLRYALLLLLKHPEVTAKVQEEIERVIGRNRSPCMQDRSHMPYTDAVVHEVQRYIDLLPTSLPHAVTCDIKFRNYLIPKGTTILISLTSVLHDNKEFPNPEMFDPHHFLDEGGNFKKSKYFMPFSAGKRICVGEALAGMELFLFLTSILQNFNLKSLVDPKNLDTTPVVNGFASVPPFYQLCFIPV
# Experiment notes: CYP inhibition assay, human liver microsomes, CYP2C9
# Format: in vitro ADME
# Experimental context: co-incubation, tolbutamide substrate, read-out: CYP 2C9 IC50 co
IC50 values by entry

- Smiles entry: "Cc1nc(N2C[C@H]3C(=O)N(C)C(=N)N[C@@]3(c3cc(C#N)cs3)C2)nc(C2CC2)c1F"
  Test target: "CYP2C9 (Homo sapiens)"
  Value reported: "> 30 µM"

Recorded IC50 (compound `CCc1nc(N2C[C@H]3C(=O)N(C)C(=N)N[C@@]3(c3ccc(Cl)s3)C2)nc(C)c1F` ): > 30 µM

What the record says about `Cc1nc(N2C[C@H]3C(=O)N(C)C(=N)N[C@@]3(c3ccc(Cl)s3)C2)nc(C)c1F` : IC50 is > 30 µM

Entry source: patent US8450331B2
